# Protocol description: Membrane permeability test of cyclic peptides (Caco-2, modified/improved method of WO 2018/124162)
# Study conditions: human, Caco-2, Caco-2 (cm/sec), membrane permeability of cyclic peptides, Caco-2
*1 amine or outer side, *2 acyl side, *3 side chain or, on linkers, in order; H or OH if unused. Where a SMILES comes first, the peptide text is derived from it. Bridges are numbered along the chain shown (N, C = ends). [ ]: non-standard residue; d: D form. The star is where a group is joined. Propyl(2,2-Me2,3-OH) = CC(C)(CO)C*; NMeF = CN[C@@H](Cc1ccccc1)C(=O)O; NMeGABA = CN(CCCC(=O)[*:2])[*:1]; NMeL = CN[C@@H](CC(C)C)C(=O)O; Piperidide = C1CCN(*)CC1
Measured attribute: Papp (×10⁻⁶ cm/s)
Write down the numeric answer in ×10⁻⁶ cm/s and omit the unit.

Which Papp value belongs to CC(C)C[C@@H]1NC(=O)[C@H](Cc2ccccc2)N(C)C(=O)[C@H](Cc2ccccc2)N(C)C(=O)[C@H](COCC(C)(C)CO)NC(=O)[C@H](CC(C)C)N(C)C(=O)CCCN(C)C(=O)C[C@@H](C(=O)N2CCCCC2)NC(=O)[C@H](CC(C)C)N(C)C(=O)[C@H](CC(C)C)N(C)C(=O)[C@H]([C@@H](C)O)NC(=O)[C@H](CC(C)C)N(C)C1=O [AP119] ([NMeGABA][NMeL]S(Propyl(2,2-Me2,3-OH))[NMeF][NMeF]L[NMeL]T[NMeL][NMeL]D-Piperidide; lactam N-11) ?
0.34
